- MEASURED TARGET: T1, linear diubiquitin (Boston Biochem) (human, UniProt P0CG48 1-152)
- T1 construct: Bought product
- ASSAY NOTES: phage IC50 competition ELISA with soluble linear diubiquitin
ASSAY METRIC: pIC50
Scale: negative log10 of molar concentration, which is what pIC50 denotes.

QUERY: Please report the measured pIC50 for 1F11, Fab displayed on phage (Fab, V domains shown, Monovalent Fab on M13 phage) VH: EVQLVESGGGLVQPGGSLRLSCAASGFTFSNTYISWVRQAPGKGLEWVASITPSSGSTDYADSVKGRFTISADTSKNTAYLQMNSLRAEDTAVYYCARTWLLRWVMDYWGQGTLVTVSS VL: DIQMTQSPSSLSASVGDRVTITCRASQDVSTAVAWYQQKPGKAPKLLIYSAKFLYSGVPSRFSGSGSGTDFTLTISSLQPEDFATYYCQQSYTTPPTFGQGTKVEIK
RESULT: 7.85

QUERY: Name the recorded pIC50 of the binder listed here: 2C11/4G7 double mutant, Fab displayed on phage (Fab, name in Kabat numbering, V domains shown) VH: EVQLVESGGGLVQPGGSLRLSCAASGFTFSNTYISWVRQAPGKGLEWVASITPSSGSTDYADSVKGRFTISADTSKNTAYLQMNSLRAEDTAVYYCARTWLLRWVMDGWGQGTLVTVSS VL: DIQMTQSPSSLSASVGDRVTITCRASQDVSTAVAWYQQKPGKAPKLLIYSASFLYSGVPSRFSGSGSGTDFTLTISSLQPEDFATYYCQQSYTQPPTFGQGTKVEIK
RESULT: 7.51

QUERY: Identify the reported pIC50 for the following entry. 1F11/4G7 double mutant, Fab displayed on phage (Fab, name in Kabat numbering, V domains shown) VH: EVQLVESGGGLVQPGGSLRLSCAASGFTFSNTYISWVRQAPGKGLEWVASITPSSGSTDYADSVKGRFTISADTSKNTAYLQMNSLRAEDTAVYYCARTWLLRWVMDGWGQGTLVTVSS VL: DIQMTQSPSSLSASVGDRVTITCRASQDVSTAVAWYQQKPGKAPKLLIYSAKFLYSGVPSRFSGSGSGTDFTLTISSLQPEDFATYYCQQSYTTPPTFGQGTKVEIK
RESULT: 7.89
